metric name: melting point

[[record]]
molecule = "CC(C)c1ccc(NC(=O)COC(=O)c2cccc(Br)c2)cc1 [4e]"
experimental_value = "91 to 92 °C"

[[record]]
molecule = "CC(C)c1ccc(NC(=O)COC(=O)c2ccccc2I)cc1 [4f]"
experimental_value = "91 to 92 °C"

[[record]]
molecule = "CC(C)c1ccc(NC(=O)COC(=O)c2ccccc2Cl)cc1 [4a]"
experimental_value = "94 to 96 °C"

[[record]]
molecule = "CC(C)c1ccc(NC(=O)COC(=O)c2ccc(Cl)c(Cl)c2)cc1 [4c]"
experimental_value = "107 to 108 °C"

[[record]]
molecule = "CC(C)c1ccc(NC(=O)COC(=O)c2cccc(Cl)c2)cc1 [4b]"
experimental_value = "96 to 98 °C"

[[record]]
molecule = "Cc1ccc(C(C)C)cc1NC(=O)COC(=O)c1ccccc1Cl [4g]"
experimental_value = "115 to 116 °C"


Now take the following molecule into account.
Prompt line: Endpoint output: melting point of CC(C)c1ccc(NC(=O)COC(=O)c2ccccc2Br)cc1 [4d] . Value?
Response line: 89 to 90 °C

====

target or test system: jack bean urease (Canavalia ensiformis)
measurement notes: biochemical
Format: biochemical
test conditions: n = 3; 30 min, 37°C, pH 7.0, 100 mM urea; read-out: Urease (jack bean) inhibition IC50 ± SD
metric name: IC50 (nM)
Answer with a number only, understood to be in nM.

Prompt line: Endpoint output: IC50 of NC(N)=S [Thiourea, thiourea, reference compound] . Value?
Response line: 472

====

target or test system: jack bean urease (Canavalia ensiformis)
measurement notes: biochemical
Assay type: biochemical
metric name: pIC50
Convention used: pIC50 is expressed as -log10 of the molar concentration.

Below are worked cases with known answers.
[[record]]
input_smiles = "Cc1ccc(C(C)C)cc1NC(=O)COC(=O)c1ccccc1Cl"
target_or_test_system = "jack bean urease (Canavalia ensiformis)"
metric_name = "pIC50"
experimental_value = 8.42

[[record]]
input_smiles = "CC(C)c1ccc(NC(=O)COC(=O)c2ccccc2Cl)cc1"
target_or_test_system = "jack bean urease (Canavalia ensiformis)"
metric_name = "pIC50"
experimental_value = 7.24


Prompt line: Endpoint output: pIC50 of `CC(C)c1ccc(NC(=O)COC(=O)c2ccccc2Br)cc1` . Value?
Response line: 8.42

Prompt line: Endpoint output: pIC50 of `CC(C)c1ccc(NC(=O)COC(=O)c2ccc(Cl)c(Cl)c2)cc1` . Value?
Response line: 7.74

====

target or test system: jack bean urease (Canavalia ensiformis, UniProt P07374)
Sequence (P07374 whole entry, looked up): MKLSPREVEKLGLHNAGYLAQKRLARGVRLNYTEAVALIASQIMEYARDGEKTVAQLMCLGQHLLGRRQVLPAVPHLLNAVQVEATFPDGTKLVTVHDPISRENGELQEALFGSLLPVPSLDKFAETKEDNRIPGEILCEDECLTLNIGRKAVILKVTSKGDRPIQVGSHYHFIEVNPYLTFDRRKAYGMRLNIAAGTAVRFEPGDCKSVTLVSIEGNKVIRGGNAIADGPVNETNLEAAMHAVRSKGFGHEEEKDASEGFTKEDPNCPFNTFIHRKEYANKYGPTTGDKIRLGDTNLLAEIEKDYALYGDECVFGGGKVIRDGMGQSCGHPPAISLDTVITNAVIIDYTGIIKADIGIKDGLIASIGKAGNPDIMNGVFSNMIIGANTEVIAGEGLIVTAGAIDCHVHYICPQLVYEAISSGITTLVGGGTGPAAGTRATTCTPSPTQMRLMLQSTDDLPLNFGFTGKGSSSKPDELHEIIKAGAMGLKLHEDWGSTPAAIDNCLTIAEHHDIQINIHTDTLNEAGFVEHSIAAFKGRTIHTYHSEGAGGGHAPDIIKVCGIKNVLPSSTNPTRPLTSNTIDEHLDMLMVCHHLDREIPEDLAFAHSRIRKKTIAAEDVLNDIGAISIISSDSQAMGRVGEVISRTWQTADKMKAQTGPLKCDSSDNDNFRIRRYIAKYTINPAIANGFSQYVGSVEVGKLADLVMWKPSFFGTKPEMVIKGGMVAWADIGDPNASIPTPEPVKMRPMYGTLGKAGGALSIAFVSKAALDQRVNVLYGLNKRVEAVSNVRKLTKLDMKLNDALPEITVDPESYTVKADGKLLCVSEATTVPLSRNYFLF
measurement notes: Kinetic study of jack bean urease inhibition (Lineweaver-Burk plots)
Type: biochemical
Protocol: The derivative 4b was selected on the basis of its high activity for the determination of its kinetic mechanism on jack bean urease. The enzyme inhibition EI and enzyme-substrate inhibition ESI constants for compound 4b have been determined. […] The kinetic mechanism was determined by plotting of 1/V versus 1/[S] in the presence of inhibitor concentrations which gave a series of straight lines as shown in Figure 3. […]
metric name: pKi
Convention used: pKi is expressed as -log10 of the molar concentration.

Prompt line: Endpoint output: pKi of `CC(C)c1ccc(NC(=O)COC(=O)c2cccc(Cl)c2)cc1` . Value?
Response line: 9.15

====

target or test system: jack bean urease (Canavalia ensiformis, UniProt P07374)
measurement notes: biochemical
Format: biochemical
Property: pIC50; scope: individual compounds
Convention used: pIC50 is expressed as -log10 of the molar concentration.

Below are worked cases with known answers.
[[record]]
input_smiles = "CC(C)c1ccc(NC(=O)COC(=O)c2cccc(Cl)c2)cc1"
experimental_value = 8.80

[[record]]
input_smiles = "Cc1ccc(C(C)C)cc1NC(=O)COC(=O)c1ccccc1I"
experimental_value = 7.94

[[record]]
input_smiles = "CC(C)c1ccc(NC(=O)COC(=O)c2ccccc2I)cc1"
experimental_value = 7.51


Now take the following compound into account.
Prompt line: Endpoint output: pIC50 of `CC(C)c1ccc(NC(=O)COC(=O)c2cccc(Br)c2)cc1` . Value?
Response line: 7.20

Hey, just so you know, these numbers are from paper PMC7775144.
